assay: Pharmacokinetic study in mice, brain; type: in vivo; details: Swiss Webster, mouse, brain; mice, Not Fasted, PO, 60 mg/kg
ASSAY_ENDPOINT: Tmax

COc1ccc(N(C)c2nc(CN)nc3ccccc23)cc1 [Compound 1] ... 2 h

---

assay: Pharmacokinetic study in mice, plasma; assay type: in vivo; details: Swiss Webster, mouse, plasma, po, 60 mg/kg, mice, Not Fasted
ASSAY_ENDPOINT: AUC(0-inf) (ng·h/mL)

COc1ccc(N(C)c2nc(CN)nc3ccccc23)cc1 [Compound 1] ... 10700

---

tested on: MCF-7/MX (BCRP-1); assay: Multidrug resistant cell assay, cytotoxicity; type: cell-based; details: MCF7/MX, 72 h, read-out: Various MDR Cell Line Cytotoxicity IC50
The following compounds are shown together with reported IC50 values.
ASSAY_ENDPOINT: IC50 (nM)

COc1ccc(N(C)c2nc(CN)nc3ccccc23)cc1 [Compound 1] ... 9
COc1cccc2c1C(=O)c1c(O)c3c(c(O)c1C2=O)C[C@@](O)(C(=O)CO)C[C@@H]3O[C@H]1C[C@H](N)[C@@H](O)[C@H](C)O1 [Epirubicin, epirubicin, reference compound] ... 400

---

experiment: Pharmacokinetic study in a primate, plasma; type: in vivo, cynomolgus monkey; conditions: male cynomolgus monkey, fasted, single oral dose 20 mg/kg, plasma
ASSAY_ENDPOINT: AUC(0-inf) (ng·h/mL)

COc1ccc(N(C)c2nc(CN)nc3ccccc23)cc1 ... 536

---

experiment: Pharmacokinetic study in mice, brain; format: in vivo; details: mouse, brain, po; Swiss Webster mice, single 60 mg/kg p.o. dose; read-out: Brain concentrations relative to plasma levels (AUC0-∞)
ASSAY_ENDPOINT: Kp

COc1ccc(N(C)c2nc(CN)nc3ccccc23)cc1 ... ~7

---

assay: Pharmacokinetic study in mice, plasma; type: in vivo; conditions: Swiss Webster, mouse, plasma, po, 60 mg/kg, mice, Fasted
ASSAY_ENDPOINT: AUC(0-inf)

COc1ccc(N(C)c2nc(CN)nc3ccccc23)cc1 [Compound 1] ... 12900 ng·h/mL

---

assay: Pharmacokinetic study in mice, plasma; format: in vivo; conditions: Swiss Webster, mouse, plasma, iv, 2.5 mg/kg, mice, Not Fasted
ASSAY_ENDPOINT: Tmax (min)

COc1ccc(N(C)c2nc(CN)nc3ccccc23)cc1 [Compound 1] ... 3
